# key: entry, value: Response
Biological target: human mesothelin (MSLN) (human) (UniProt Q13421)
Assay: BLI (Octet), bsAb in 1+1 Fab-scFv-Fc format

{"Binder": "XENP32550 (bispecific antibody, part only; not given: anti-CD3 scFv-Fc arm, constant regions, V domains shown, not shown: another chain or arm of the molecule; a dimerising Fc or GST; small tags and cut ends) VH: QVQLVQSGAEVKKPGASVKVSCKASGYTFTGYWMHWVRQAPGQGLEWMGMIHPNSDNTIYYEKFQGRVTMTVDKSISTAYMELSRLRSDDTAVYYCAIIITPVVPKFDYWGQGTLVTVSS VL: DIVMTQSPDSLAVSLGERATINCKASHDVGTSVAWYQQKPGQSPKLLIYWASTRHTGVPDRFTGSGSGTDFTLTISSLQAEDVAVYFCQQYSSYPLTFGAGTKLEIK", "Response": 1.02}
{"Binder": "XENP32559 (bispecific antibody, part only; not given: anti-CD3 scFv-Fc arm, constant regions, V domains shown, not shown: another chain or arm of the molecule; a dimerising Fc or GST; small tags and cut ends) VH: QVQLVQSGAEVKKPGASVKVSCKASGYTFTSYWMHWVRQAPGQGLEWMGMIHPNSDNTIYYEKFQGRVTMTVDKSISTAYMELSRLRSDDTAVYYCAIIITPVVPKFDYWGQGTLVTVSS VL: DIVMTQSPDSLAVSLGERATINCKSSHDVGTSVAWYQQKPGQSPKLLIYWASTRHTGVPDRFTGSGSGTDFTLTISSLQAEDVAVYFCQQYSSYPLTFGAGTKLEIK", "Response": 1.11}
{"Binder": "XENP32569 (bispecific antibody, part only; not given: anti-CD3 scFv-Fc arm, constant regions, V domains shown, not shown: another chain or arm of the molecule; a dimerising Fc or GST; small tags and cut ends) VH: QVQLVQSGAEVKKPGASVKVSCKASGYTFTSYWMHWVRQAPGQGLEWMGMIHPQSDNTIYYEKFQGRVTMTVDKSISTAYMELSRLRSDDTAVYYCAIIITPVVPKFDYWGQGTLVTVSS VL: DIVMTQSPDSLAVSLGERATINCKASHSVGTSVAWYQQKPGQSPKLLIYWASTRHTGVPDRFTGSGSGTDFTLTISSLQAEDVAVYFCQQYSSYPLTFGAGTKLEIK", "Response": 0.978}
{"Binder": "XENP32556 (bispecific antibody, part only; not given: anti-CD3 scFv-Fc arm, constant regions, V domains shown, not shown: another chain or arm of the molecule; a dimerising Fc or GST; small tags and cut ends) VH: QVQLVQSGAEVKKPGASVKVSCKASGYTFTSYWMHWVRQAPGQGLEWMGMIHPNSDNTIYYEKFQGRVTMTVDKSISTAYMELSRLRSDDTAVYYCARIITPVVPKFDYWGQGTLVTVSS VL: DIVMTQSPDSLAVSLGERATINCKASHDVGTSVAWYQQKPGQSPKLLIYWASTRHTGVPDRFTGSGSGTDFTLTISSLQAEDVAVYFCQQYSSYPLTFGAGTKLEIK", "Response": 1.18}
{"Binder": "XENP32557 (bispecific antibody, part only; not given: anti-CD3 scFv-Fc arm, constant regions, V domains shown, not shown: another chain or arm of the molecule; a dimerising Fc or GST; small tags and cut ends) VH: QVQLVQSGAEVKKPGASVKVSCKASGYTFTSYWMHWVRQAPGQGLEWMGMIHPNSDNTIYYEKFQGRVTMTVDKSISTAYMELSRLRSDDTAVYYCAIIISPVVPKFDYWGQGTLVTVSS VL: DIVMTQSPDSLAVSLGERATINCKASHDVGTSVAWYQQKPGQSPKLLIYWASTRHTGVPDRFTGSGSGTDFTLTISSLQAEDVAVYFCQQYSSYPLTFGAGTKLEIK", "Response": 1.15}
